In this section, each of the compounds is paired with its reported IC50.
- Target or system: haematopoietic prostaglandin D synthase (H-PGDS) (Homo sapiens)
- Construct: Full length human H-PGDS cDNA (Invitrogen Ultimate ORF 10H13026) was amplified by PCR; 6-His (N); TEV protease cleavage site (N); made in house; host or cells: E. coli BL21 (DE3*), vector pET22b+
- Test: H-PGDS RapidFire high throughput mass spectrometry assay (conversion of PGH2 to PGD2)
- Type: biochemical
- Condition: 10 nM H-PGDS, PGH2 formed in situ by COX-2 from arachidonic acid; read-out: Potency Range (mean pIC50) (converted)

CC(=O)c1cnc(NC(=O)[C@H]2C[C@H](Oc3cccc4cccnc34)C2)s1	10 to 79.4 nM
CCc1cccc(O[C@H]2C[C@H](C(=O)N[C@H]3CC[C@H](C(C)(C)O)CC3)C2)c1	100 to 1000 nM
Cc1ccc(N2CC(NC(=O)[C@H]3C[C@H](Oc4cccc5scnc45)C3)C2)nc1	10 to 79.4 nM

Sample Cc1ccc(N2CC(NC(=O)[C@H]3C[C@H](Oc4cc(F)cc5scnc45)C3)C2)nc1 — what was its IC50? 10 to 79.4 nM

Ok, now CC1C(Oc2cc(F)cc3scnc23)CN1C(=O)N[C@H]1CC[C@H](C(C)(C)O)CC1 (mixture of isomers) 10 to 79.4 nM

Ok, now Cc1coc2c(O[C@H]3C[C@H](C(=O)N[C@H]4CC[C@H](C(C)(C)O)CC4)C3)cccc12 100 to 1000 nM

Ok, now C[C@]1(O)CC[C@H](NC(=O)[C@H]2C[C@H](Oc3cc(F)ccc3OC(F)F)C2)CC1 10 to 79.4 nM

Ok, now COC(=O)C12CCC(NC(=O)[C@H]3C[C@H](Oc4cccc5scnc45)C3)(CC1)CC2 10 to 79.4 nM

Ok, now Cc1nccc(N2CC(NC(=O)N3CC(Oc4cc(F)cc5scnc45)C3)C2)n1 10 to 79.4 nM

---

- Target or system: haematopoietic prostaglandin D synthase (H-PGDS) (Homo sapiens)
- Construct: Full length human H-PGDS cDNA (Invitrogen Ultimate ORF 10H13026) was amplified by PCR; 6-His (N); TEV protease cleavage site (N); made in house; host or cells: E. coli BL21 (DE3*), vector pET22b+
- Test: H-PGDS RapidFire high throughput mass spectrometry assay (conversion of PGH2 to PGD2)
- Format: biochemical
- Condition: 10 nM H-PGDS, PGH2 formed in situ by COX-2 from arachidonic acid; read-out: Potency Range (mean pIC50) (converted)
Structures can show the parent of a compound that is named as a salt.
In this section, each of the compounds is paired with its reported IC50.

O=C(NC1CCCCC1)N[C@H]1C[C@H](NC(=O)[C@H]2C[C@H](Oc3cccc4scnc34)C2)C1	100 to 1000 nM
COCCO[C@H]1CC[C@H](NC(=O)N2CC(Oc3cccc4scnc34)C2)CC1	10 to 79.4 nM
COCCNc1nccc(N2CC(NC(=O)[C@H]3C[C@H](Oc4cccc5scnc45)C3)C2)n1	100 to 1000 nM
CC(C)(O)[C@H]1CC[C@H](NC(=O)N2CC(Oc3cccc4ccoc34)C2)CC1	10 to 79.4 nM

Sample COc1ccc(F)cc1O[C@H]1C[C@H](NC(=O)[C@H]2CC[C@H](C(C)(C)O)CC2)C1 — what was its IC50? 100 to 1000 nM

Ok, now Cc1cnc(NC(=O)[C@H]2C[C@H](Oc3cccc4cccnc34)C2)o1 10 to 79.4 nM

Ok, now O=C(Nc1nc(COC(=O)[C@H]2C[C@H](Oc3cc(F)ccc3OC(F)F)C2)cs1)[C@H]1C[C@H](Oc2cc(F)ccc2OC(F)F)C1 100 to 1000 nM

Ok, now Cc1ccc(N2CC(NC(=O)N3CC(Oc4cc(F)cc5scnc45)C3)C2)nc1 10 to 79.4 nM

Ok, now NC(=O)c1ccc(N2CC(NC(=O)[C@H]3C[C@H](Oc4cccc5scnc45)C3)C2)nc1 10 to 79.4 nM

Ok, now NC(=O)c1csc(NC(=O)[C@H]2C[C@H](Oc3cccc4cccnc34)C2)n1 [Example 189, trifluoroacetic acid salt] 10 to 79.4 nM

Ok, now O=C(NC1CN(c2ccc(F)cn2)C1)N1CC(Oc2cc(F)cc3scnc23)C1 10 to 79.4 nM

Ok, now Cc1ccc(N2CC(NC(=O)[C@H]3C[C@H](Oc4cc(F)cc5scnc45)C3)C2)[n+]([O-])c1 100 to 1000 nM

---

- Target or system: haematopoietic prostaglandin D synthase (H-PGDS) (Homo sapiens)
- Construct: Full length human H-PGDS cDNA (Invitrogen Ultimate ORF 10H13026) was amplified by PCR; 6-His (N); TEV protease cleavage site (N); made in house; host or cells: E. coli BL21 (DE3*), vector pET22b+
- Test: H-PGDS RapidFire high throughput mass spectrometry assay (conversion of PGH2 to PGD2)
- Assay type: biochemical
- Condition: 10 nM H-PGDS, PGH2 formed in situ by COX-2 from arachidonic acid; read-out: Potency Range (mean pIC50) (converted)
Property: IC50

A selection of reference data follows.
Cc1ccc(CNC(=O)[C@H]2C[C@H](Oc3cccc4scnc34)C2)o1	100 to 1000 nM
COc1cc(F)ccc1O[C@H]1C[C@H](C(=O)Nc2nc(C(C)=O)cs2)C1	10 to 79.4 nM
O=C(Nc1nc(CO)cs1)[C@H]1C[C@H](Oc2cccc3cccnc23)C1	10 to 79.4 nM
O=C(NC1CN(c2ccccn2)C1)[C@H]1C[C@H](Oc2cc(F)cc3scnc23)C1	10 to 79.4 nM

Which measured IC50 belongs to O=C(N[C@H]1CC[C@@H](NC(CO)C(F)(F)F)CC1)[C@H]1C[C@H](Oc2cc(F)cc3scnc23)C1 (mixture of isomers) , tested on haematopoietic prostaglandin D synthase (H-PGDS) (Homo sapiens)? 10 to 79.4 nM

Ok, now O=C(Nc1nc(C2CC2)cs1)[C@H]1C[C@H](Oc2cccc3cccnc23)C1 < 10 nM

Ok, now CC(O)[C@H]1CC[C@H](NC(=O)[C@H]2C[C@H](Oc3cc(F)ccc3OC(F)F)C2)CC1 (mixture of isomers) 10 to 79.4 nM

Ok, now Cc1cc(NC(=O)[C@H]2C[C@H](Oc3cccc4scnc34)C2)ncn1 10 to 79.4 nM

---

- Target or system: haematopoietic prostaglandin D synthase (H-PGDS) (Homo sapiens, UniProt O60760)
- Construct: Full length human H-PGDS cDNA (Invitrogen Ultimate ORF 10H13026) was amplified by PCR; 6-His (N); TEV protease cleavage site (N); made in house; host or cells: E. coli BL21 (DE3*), vector pET22b+
- Sequence (O60760 whole entry): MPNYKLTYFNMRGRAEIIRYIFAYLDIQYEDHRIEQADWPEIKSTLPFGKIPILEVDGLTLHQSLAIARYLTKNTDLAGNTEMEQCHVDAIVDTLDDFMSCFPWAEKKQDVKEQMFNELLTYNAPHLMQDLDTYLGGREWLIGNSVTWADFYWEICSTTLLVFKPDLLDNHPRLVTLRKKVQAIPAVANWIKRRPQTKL
- Test: H-PGDS RapidFire high throughput mass spectrometry assay (conversion of PGH2 to PGD2)
- Format: biochemical
- Condition: 10 nM H-PGDS, PGH2 formed in situ by COX-2 from arachidonic acid; read-out: Potency Range (mean pIC50) (converted)
In this section, each of the compounds is paired with its reported IC50.

O=C(Nc1nncs1)[C@H]1C[C@H](Oc2cccc3cccnc23)C1 [Example 216]	10 to 79.4 nM

Sample CS(=O)(=O)c1ccc(NC(=O)N2CC(Oc3cccc4scnc34)C2)c(F)c1 [Example 308] — what was its IC50? 10 to 79.4 nM

Ok, now CC(C)(C)c1nnc(NC(=O)N2CC(Oc3cccc4scnc34)C2)s1 [Example 332] < 10 nM

Ok, now CC(C)(O)[C@H]1CC[C@H](NC(=O)[C@H]2C[C@H](Oc3cc(F)cc(Cl)c3)C2)CC1 [Example 290] 100 to 1000 nM

Ok, now CS(=O)(=O)c1ccc(NC(=O)[C@H]2C[C@H](Oc3cccc4scnc34)C2)cc1 [Example 242] 10 to 79.4 nM

Ok, now O=C(Nc1nccs1)[C@H]1C[C@H](Oc2cccc(Cl)c2)C1 [Example 287] 10 to 79.4 nM

Ok, now Cc1cnc(N2CC(NC(=O)[C@H]3C[C@H](Oc4cc(F)cc5scnc45)C3)C2)nc1 [Example 112] 10 to 79.4 nM

Ok, now CC(C)(C)c1nnc(NC(=O)[C@H]2C[C@H](Oc3cccc4cccnc34)C2)o1 [Example 179] 10 to 79.4 nM

---

In this section, each of the compounds is paired with its reported IC50.
- Target or system: haematopoietic prostaglandin D synthase (H-PGDS) (Homo sapiens, UniProt O60760)
- Construct: Full length human H-PGDS cDNA (Invitrogen Ultimate ORF 10H13026) was amplified by PCR; 6-His (N); TEV protease cleavage site (N); made in house; host or cells: E. coli BL21 (DE3*), vector pET22b+
- Test: H-PGDS RapidFire high throughput mass spectrometry assay (conversion of PGH2 to PGD2)
- Type: biochemical
- Condition: 10 nM H-PGDS, PGH2 formed in situ by COX-2 from arachidonic acid; read-out: Potency Range (mean pIC50) (converted)

A selection of reference data follows.
CN1CCN([C@H]2CC[C@H](NC(=O)N3CC(Oc4cccc5scnc45)C3)CC2)C1=O [Example 102]	0.1 to 1 µM
N#Cc1ccnc(N2CC(NC(=O)N3CC(Oc4cc(F)cc5scnc45)C3)C2)c1 [Example 134]	0.01 to 0.0794 µM
COc1ccc(F)cc1O[C@H]1C[C@H](C(=O)Nc2nc(C(=O)N(C)C)co2)C1 [Example 158]	0.01 to 0.0794 µM
CC(C)(O)[C@H]1CC[C@H](NC(=O)N2CC(Oc3ccccc3OC(F)(F)F)C2)CC1 [Example 258]	0.1 to 1 µM
CC(C)(O)[C@@H]1CC[C@@H](NC(=O)[C@H]2C[C@H](Oc3cccc4cccnc34)C2)CO1 (racemic) [Example 195]	0.1 to 1 µM

Sample O=C(NC1CN(c2ccccn2)C1)[C@H]1C[C@H](Oc2cc(F)ccc2OC(F)F)C1 [Example 18] — what was its IC50? 0.01 to 0.0794 µM

Ok, now CC(C)(C)OC(=O)N1CCC(NC(=O)N2CC(Oc3cccc4scnc34)C2)CC1 [Example 96] 0.1 to 1 µM

Ok, now CC(C)c1nsc(NC(=O)N2CC(Oc3cccc4scnc34)C2)n1 [Example 337] < 0.01 µM
